System: Staphylococcus aureus ATCC 6538P
Experiment: Minimum inhibitory concentration, Staphylococcus aureus ATCC 6538P
Format: cell-based
Settings: ATCC6538P
Sorting guide: entries reporting MIC beneath 3 µg/mL go in the True pile, the rest go in the False pile.

MOLECULE | TESTED_SYSTEM | CAT
CCC1OC(=O)CC(O)C(C)C(OC2OC(C)C(OC3CC(C)(O)C(O)C(C)O3)C(N(C)C)C2O)C(CC=O)CC(C)C(=O)CC(Sc2ccccc2)C(C)=CC1COC1OC(C)C(O)C(OC)C1OC (centres unmarked) [Compound S, 10,11-Dihydro-11-(phenylthio)tylosin] | Staphylococcus aureus ATCC 6538P | True
CCC1OC(=O)CC(O)C(C)C(OC2OC(C)C(OC3CC(C)(O)C(O)C(C)O3)C(N(C)C)C2O)C(CC=O)CC(C)C(=O)CC(Sc2ccc(OC)cc2)C(C)=CC1COC1OC(C)C(O)C(OC)C1OC (centres unmarked) | Staphylococcus aureus ATCC 6538P | False
CCC1OC(=O)CC(O)C(C)C(OC2OC(C)C(O)C(N(C)C)C2O)C(CC=O)CC(C)C(=O)CC(Sc2ccccc2)C(C)=CC1COC1OC(C)C(O)C(OC)C1OC (centres unmarked) | Staphylococcus aureus ATCC 6538P | True
CCC1OC(=O)CC(O)C(C)C(OC2OC(C)C(O)C(N(C)C)C2O)C(CC=O)CC(C)C(=O)CC(SCCO)C(C)=CC1COC1OC(C)C(O)C(OC)C1OC (centres unmarked) | Staphylococcus aureus ATCC 6538P | False
CCC1OC(=O)CC(O)C(C)C(OC2OC(C)C(OC3CC(C)(O)C(O)C(C)O3)C(N(C)C)C2O)C(CC=O)CC(C)C(=O)CC(Sc2ccc(C)cc2)C(C)=CC1COC1OC(C)C(O)C(OC)C1OC (centres unmarked) | Staphylococcus aureus ATCC 6538P | False

Exercise: Decide: MIC of CCSC1CC(=O)C(C)CC(CC=O)C(OC2OC(C)C(O)C(N(C)C)C2O)C(C)C(O)CC(=O)OC(CC)C(COC2OC(C)C(O)C(OC)C2OC)C=C1C (centres unmarked) strictly below 3 µg/mL?
Key: True

Exercise: Decide: MIC of CCSC1CC(=O)C(C)CC(CC=O)C(OC2OC(C)C(OC3CC(C)(O)C(O)C(C)O3)C(N(C)C)C2O)C(C)C(O)CC(=O)OC(CC)C(COC2OC(C)C(O)C(OC)C2OC)C=C1C (centres unmarked) [Compound R, 11-(Ethylthio)-10,11-dihydrotylosin] strictly below 3 µg/mL?
Key: True

Exercise: Decide: MIC of CCC1OC(=O)CC(O)C(C)C(OC2OC(C)C(OC3CC(C)(O)C(O)C(C)O3)C(N(C)C)C2O)C(CC(Sc2ccccc2)Sc2ccccc2)CC(C)C(=O)C=CC(C)=CC1COC1OC(C)C(O)C(OC)C1OC (centres unmarked) strictly below 3 µg/mL?
Key: False

Exercise: Decide: MIC of CCC1OC(=O)CC(O)C(C)C(OC2OC(C)C(OC3CC(C)(O)C(O)C(C)O3)C(N(C)C)C2O)C(CC=O)CC(C)C(=O)CC(Sc2ccc(N)cc2)C(C)=CC1COC1OC(C)C(O)C(OC)C1OC (centres unmarked) strictly below 3 µg/mL?
Key: False

Exercise: Decide: MIC of CCC1OC(=O)CC(O)C(C)C(OC2OC(C)C(OC3CC(C)(O)C(O)C(C)O3)C(N(C)C)C2O)C(CC=O)CC(C)C(=O)CC(Sc2ccc(Cl)cc2)C(C)=CC1COC1OC(C)C(O)C(OC)C1OC (centres unmarked) strictly below 3 µg/mL?
Key: False

Exercise: Decide: MIC of CCC1OC(=O)CC(O)C(C)C(OC2OC(C)C(O)C(N(C)C)C2O)C(CC=O)CC(C)C(=O)CC(Sc2ccc(N)cc2)C(C)=CC1COC1OC(C)C(O)C(OC)C1OC (centres unmarked) strictly below 3 µg/mL?
Key: False
